test system: ATP; assay: switch fluorescence ratio, 500 uM ATP over buffer (Cy3 cluster intensity, sum of 5 cycles each) (fold (ratio)); higher = stronger signal-on switching upon ATP binding; sequences stand for … in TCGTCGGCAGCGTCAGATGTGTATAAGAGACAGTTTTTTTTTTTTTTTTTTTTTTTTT…TC; conditions: aptamer strand: ATP DNA aptamer (quencher-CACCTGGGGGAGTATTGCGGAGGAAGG + anchor), 100 nM annealed; ATP concentration: 500 uM;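 further: ATP exposure 15 min at 22 °C before imaging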
switch fluorescence ratio: recorded values
Please reply with the value in numeric form only.

- TTCGAACTCG: 1.01
- GGGGGGCAGA: 1
- CCCAGGCGGA: 1.65
- TGTCCGTTGG: 1.05
- CATCTCTAGC: 0.993
- AACGGGTTAT: 0.995

# evaluate next
Problem: Using known records, supply switch fluorescence ratio for TAAGCCATCT
Solution: 1.04

* * *

switch fluorescence ratio: recorded values
system: ATP; assay: switch fluorescence ratio, 500 uM ATP over buffer (Cy3 cluster intensity, sum of 5 cycles each) (fold (ratio)); higher = stronger signal-on switching upon ATP binding; sequences stand for … in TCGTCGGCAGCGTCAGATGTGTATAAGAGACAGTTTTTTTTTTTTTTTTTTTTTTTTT…TC; conditions: aptamer strand: ATP DNA aptamer (quencher-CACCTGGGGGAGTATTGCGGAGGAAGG + anchor), 100 nM annealed; ATP concentration: 500 uM;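 further: ATP exposure 15 min at 22 °C before imaging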
Please reply with the value in numeric form only.

Solved entries:
• CTACATACGG = 1.52
• ACGATTTAAG = 1.03
• AGTAGTAAGT = 1.01
• CGATGGGAGG = 1.06
• CAGGCTTTTA = 0.983

# evaluate next
Problem: Using known records, supply switch fluorescence ratio for AGTTTTTATA
Solution: 1

* * *

system: ATP; experiment: switch fluorescence ratio, 500 uM ATP over buffer (Cy3 cluster intensity, sum of 5 cycles each) (fold (ratio)); higher = stronger signal-on switching upon ATP binding; sequences stand for … in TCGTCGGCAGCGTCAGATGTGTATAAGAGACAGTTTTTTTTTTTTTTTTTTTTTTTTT…TC; details: aptamer strand: ATP DNA aptamer (quencher-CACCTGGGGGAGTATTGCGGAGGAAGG + anchor), 100 nM annealed; ATP concentration: 500 uM;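 further: ATP exposure 15 min at 22 °C before imaging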
reported_endpoint: switch fluorescence ratio
Please reply with the value in numeric form only.

• CGGGGCACGC = 0.896

# evaluate next
Problem: Using known records, supply switch fluorescence ratio for AGTGGCAAGG
Solution: 0.994

* * *

test system: ATP; experiment: switch fluorescence ratio, 500 uM ATP over buffer (Cy3 cluster intensity, sum of 5 cycles each) (fold (ratio)); higher = stronger signal-on switching upon ATP binding; sequences stand for … in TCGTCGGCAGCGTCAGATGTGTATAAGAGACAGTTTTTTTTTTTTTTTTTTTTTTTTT…TC; details: aptamer strand: ATP DNA aptamer (quencher-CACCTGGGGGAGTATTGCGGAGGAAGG + anchor), 100 nM annealed; ATP concentration: 500 uM;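 further: ATP exposure 15 min at 22 °C before imaging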
switch fluorescence ratio: recorded values
Please reply with the value in numeric form only.

Solved entries:
* GTTGTTATCG | 0.993
* TGGGAGAGCG | 0.973
* TCGCTAGATG | 1.4
* CAAGATGGGG | 0.95
* GTGTAAAAGC | 1.03

Problem: Using known records, supply switch fluorescence ratio for AGGATAGTGT
Solution: 0.985

Problem: Using known records, supply switch fluorescence ratio for TGGGAAGTGT
Solution: 0.962

* * *

test system: ATP; assay: switch fluorescence ratio, 500 uM ATP over buffer (Cy3 cluster intensity, sum of 5 cycles each) (fold (ratio)); higher = stronger signal-on switching upon ATP binding; sequences stand for … in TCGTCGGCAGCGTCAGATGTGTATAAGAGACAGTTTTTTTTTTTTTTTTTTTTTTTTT…TC; settings: aptamer strand: ATP DNA aptamer (quencher-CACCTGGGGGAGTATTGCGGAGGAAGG + anchor), 100 nM annealed; ATP concentration: 500 uM;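 further: ATP exposure 15 min at 22 °C before imaging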
switch fluorescence ratio: recorded values
Please reply with the value in numeric form only.

Solved entries:
- TCTCGGGATT: 1
- GGAAAATGGG: 1.02

Problem: Using known records, supply switch fluorescence ratio for ACCGGGAAAG
Solution: 1.06

Problem: Using known records, supply switch fluorescence ratio for ATAGATGATC
Solution: 1

Problem: Using known records, supply switch fluorescence ratio for TCAGAGTGCT
Solution: 1.03

Problem: Using known records, supply switch fluorescence ratio for CTTCTTCGGT
Solution: 1

Problem: Using known records, supply switch fluorescence ratio for AATTACTTCT
Solution: 1.04

* * *

switch fluorescence ratio: recorded values
test system: ATP; assay: switch fluorescence ratio, 500 uM ATP over buffer (Cy3 cluster intensity, sum of 5 cycles each) (fold (ratio)); higher = stronger signal-on switching upon ATP binding; sequences stand for … in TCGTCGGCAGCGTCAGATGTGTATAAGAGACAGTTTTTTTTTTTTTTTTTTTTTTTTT…TC; details: aptamer strand: ATP DNA aptamer (quencher-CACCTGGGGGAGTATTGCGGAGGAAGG + anchor), 100 nM annealed; ATP concentration: 500 uM;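 further: ATP exposure 15 min at 22 °C before imaging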

Solved entries:
• CGGGCTGCGT = 0.962
• CGTGGAGGTA = 0.985
• TAGCTTTTTA = 1
• ATGGGGGTGT = 1
• AGGGTCAAGG = 0.971
• TCAGAGATGA = 0.95
• CCTTTATCGG = 0.997
• CGTTCTTCGC = 1.07
• TATAGGATT = 0.986
• ATCGAAGGGA = 0.985

# evaluate next
Problem: Using known records, supply switch fluorescence ratio for AAAGTTTTCC
Solution: 1.08

* * *

test system: ATP; assay: switch fluorescence ratio, 500 uM ATP over buffer (Cy3 cluster intensity, sum of 5 cycles each) (fold (ratio)); higher = stronger signal-on switching upon ATP binding; sequences stand for … in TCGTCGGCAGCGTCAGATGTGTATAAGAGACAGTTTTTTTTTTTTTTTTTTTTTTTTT…TC; conditions: aptamer strand: ATP DNA aptamer (quencher-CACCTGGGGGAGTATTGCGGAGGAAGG + anchor), 100 nM annealed; ATP concentration: 500 uM;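 further: ATP exposure 15 min at 22 °C before imaging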
reported_endpoint: switch fluorescence ratio
Please reply with the value in numeric form only.

Solved entries:
- GTCATTAGCG: 0.973
- TTTACAGGAT: 0.993
- GTGCTGAATG: 1.02
- ATGGAATTTG: 0.98
- GGTTATAGTC: 0.966

Problem: Report switch fluorescence ratio from ATP testing of TTACCGTGTT
Solution: 1.08

Problem: Report switch fluorescence ratio from ATP testing of GGGTACAGGA
Solution: 0.997

Problem: Report switch fluorescence ratio from ATP testing of AAGCCGTTTG
Solution: 1.07

Problem: Report switch fluorescence ratio from ATP testing of CAGAGAGCGG
Solution: 0.982

Problem: Report switch fluorescence ratio from ATP testing of GTGGTAGAGC
Solution: 0.991

Problem: Report switch fluorescence ratio from ATP testing of TCGGACAGGC
Solution: 1.03

Problem: Report switch fluorescence ratio from ATP testing of TTAGAAAGCA
Solution: 1

Problem: Report switch fluorescence ratio from ATP testing of TGGGTTTTTA
Solution: 0.944

Problem: Report switch fluorescence ratio from ATP testing of TATGGTTG
Solution: 0.99

Problem: Report switch fluorescence ratio from ATP testing of ATATGTATCA
Solution: 1.06

Problem: Report switch fluorescence ratio from ATP testing of AATTACGGTG
Solution: 1.05

Problem: Report switch fluorescence ratio from ATP testing of TGGGAATTGG
Solution: 0.981

Problem: Report switch fluorescence ratio from ATP testing of AGGGTTATGG
Solution: 0.996

Problem: Report switch fluorescence ratio from ATP testing of GGAGAAGGGT
Solution: 0.997

Problem: Report switch fluorescence ratio from ATP testing of CCTTGCCGGG
Solution: 1.05

Problem: Report switch fluorescence ratio from ATP testing of TTGGGGAACG
Solution: 1.41

Problem: Report switch fluorescence ratio from ATP testing of GGTGATTGTG
Solution: 0.983

Problem: Report switch fluorescence ratio from ATP testing of AGGCGTAAGG
Solution: 1.03

* * *

tested on: ATP; assay: switch fluorescence ratio, 500 uM ATP over buffer (Cy3 cluster intensity, sum of 5 cycles each) (fold (ratio)); higher = stronger signal-on switching upon ATP binding; sequences stand for … in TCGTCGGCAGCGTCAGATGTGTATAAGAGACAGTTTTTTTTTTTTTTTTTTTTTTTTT…TC; conditions: aptamer strand: ATP DNA aptamer (quencher-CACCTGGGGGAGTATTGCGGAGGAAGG + anchor), 100 nM annealed; ATP concentration: 500 uM;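 further: ATP exposure 15 min at 22 °C before imaging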
# switch fluorescence ratio >= 1 gives 1, anything below gives 0

Record excerpt, results attached:
- CCGTGAGTTT: 1
- CACGCGGAGG: 1

Moving on to another sequence below.
Problem: Hello, I need to know if CTAGGGGCTG has measured switch fluorescence ratio not below 1. Thanks!
Solution: 0
